system: CHEK2; conditions: concentration: 1 μM, replicates: in singlicate; n = 1;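 further: KINOMEscan kinase panel screen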
RECORDED_ENDPOINT: %Inh
The reply must contain the numeric value and, after it, the unit.

These recorded examples may help you get a feel for the data.
TEST_SMILES	%Inh
COc1cccc(C2=C(Nc3cccc(O)c3)C(=O)NC2=O)c1	0%
CN(C)CCOc1ccc(-c2cc(-c3ccc(Cl)c(O)c3)c(-c3ccncc3)[nH]2)cc1.Cl.Cl	33%

// query Quick check: %Inh of "Cc1ccc(Nc2ccnc(Nc3ccc(C)c(F)c3)n2)cc1O.Cl" ?
// result 0%

* * *

Property: %Inh; scope: individual molecules
tested on: TGFBR2; settings: concentration: 1 μM, replicates: in singlicate; n = 1
Number only, in %; omit the unit.

Worked examples, 2 molecules total:
MOLECULE	%Inh / %
Cc1ccc(O)cc1Nc1ccnc2cc(-c3ccc(CN4CCCCC4)o3)ccc12	98
Cc1ccc(NC(=O)c2ccnc(N3CCCCC3)c2)cc1-c1ccc(C(=O)NCC2CC2)cc1	0

// query Given the molecule "N#CC1(c2cccc(C(=O)Nc3cccc(Oc4ccc5nc(NC(=O)C6CC6)sc5n4)c3)c2)CC1" , what is its reported %Inh?
// result 0

// query Same thing, different molecule: "CC(C)c1nc(-c2cccc(NS(=O)(=O)c3c(F)cccc3F)c2)c(-c2ccnc(Nc3ccc(N4CCOCC4)nc3)n2)s1.Cl"
// result 92.4

// query Param item: "COc1cc(Nc2ccnc3cc(-c4ccncc4)ccc23)cc(OC)c1OC.Cl"
// result 59

// query Check "COc1cccc(CC(=O)N2CCc3cc(-c4cn(C)c5ncnc(N)c45)ccc32)c1" too.
// result 6

// query Same again, this time with "Cc1cccc(Nc2nc(N[C@H]3CCCC[C@H]3N)ncc2C(N)=O)c1.Cl"
// result 0

// query Please answer likewise for "N#Cc1cnc2cc(-c3cnc(CNCCN4CCOCC4)s3)ccc2c1Nc1ccc(Oc2ccccc2)cc1"
// result 0

// query And "Cc1ccc(Nc2ccnc(Nc3ccc(C)c(F)c3)n2)cc1O.Cl" ?
// result 83

// query What about this molecule? "Fc1cc(Cl)ccc1Nc1ccnc2cc(-c3ccc(CN4CCOCC4)o3)ccc12"
// result 83

// query One more molecule: "CC(=O)Nc1cn2nc(Oc3cccc(NC(=O)c4cccc(C(F)(F)F)c4)c3)ccc2n1"
// result 0

// query "O=C(O)C(F)(F)F.O=c1[nH]ccc2nc(N[C@@H]3CCNC3)nc(Nc3cc(Cl)cc(Cl)c3)c12" , same question.
// result 0

// query Can you check "Nc1cccc(-c2ccc3c(N)n[nH]c3c2)c1" next?
// result 0

Reference source for all entries: paper PMC5540273
